Biological target: Aryl hydrocarbon receptor (Homo sapiens) (UniProt P35869)
Sequence (P35869 whole entry, looked up): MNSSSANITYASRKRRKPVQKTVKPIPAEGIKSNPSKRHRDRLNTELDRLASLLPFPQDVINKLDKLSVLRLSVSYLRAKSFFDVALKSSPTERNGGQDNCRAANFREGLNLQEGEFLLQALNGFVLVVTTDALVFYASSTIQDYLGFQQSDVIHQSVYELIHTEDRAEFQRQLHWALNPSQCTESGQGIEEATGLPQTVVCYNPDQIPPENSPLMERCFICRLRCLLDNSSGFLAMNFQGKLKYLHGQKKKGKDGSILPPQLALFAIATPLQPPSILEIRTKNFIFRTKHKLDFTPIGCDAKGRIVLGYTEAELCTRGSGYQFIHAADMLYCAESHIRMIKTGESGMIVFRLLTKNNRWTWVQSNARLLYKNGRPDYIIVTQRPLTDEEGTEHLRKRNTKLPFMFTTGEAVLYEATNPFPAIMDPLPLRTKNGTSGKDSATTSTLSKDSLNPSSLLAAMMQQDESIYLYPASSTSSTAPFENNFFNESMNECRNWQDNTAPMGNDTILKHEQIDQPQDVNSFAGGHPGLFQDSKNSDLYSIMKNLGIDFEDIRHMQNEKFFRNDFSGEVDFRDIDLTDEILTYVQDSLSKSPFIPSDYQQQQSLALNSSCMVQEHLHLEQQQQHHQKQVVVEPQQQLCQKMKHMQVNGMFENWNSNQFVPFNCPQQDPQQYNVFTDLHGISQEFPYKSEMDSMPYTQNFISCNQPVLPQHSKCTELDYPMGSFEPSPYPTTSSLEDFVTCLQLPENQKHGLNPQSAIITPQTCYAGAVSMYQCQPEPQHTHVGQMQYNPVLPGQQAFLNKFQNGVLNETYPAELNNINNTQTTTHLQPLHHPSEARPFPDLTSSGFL
Assay: qHTS assay to identify small molecule that activate the aryl hydrocarbon receptor (AhR) signaling pathway (AID 743085); also: nearly all actives have a fitted effect of over 15% in size;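 as to activation: HG2L7.5c1 human HepG2 liver cells with stably integrated DRE-driven firefly reporter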
Conditions: HepG2 AhR-luc (HG2L7.5c1), luciferase, 24 h; series mostly up to 70.3 µM
Records with an inconclusive call do not appear. Calls of active or inactive are those of the source. Calls follow the shape of the dose curve; as a rule, active = well fitted activation curve with a large enough effect in the repeat runs; inconclusive = weak or mixed curves; inactive = no such curve, though single readings can be large or run the other way.
I would appreciate it if you answered using one of these outcomes: active, inactive

# Compound, Answer label
records = [
    ("COc1cc(Br)c(C[N+]2(CCOCCC3CCC4CC3C4(C)C)CCOCC2)cc1OC (stereo not drawn)", "inactive"),
    ("CCN(CC)CCOc1ccc(-c2nc3cc(Cl)ccc3s2)cc1", "active"),
    ("O=C[C@H](O)[C@@H](O)[C@H](O[C@H]1O[C@H](CO)[C@@H](O[C@H]2O[C@H](CO)[C@@H](O)[C@H](O)[C@H]2O)[C@H](O)[C@H]1O)[C@H](O)CO", "inactive"),
    ("CC1=C[C@H](O)CC(C)(C)[C@H]1/C=C/C(C)=C/C=C/C(C)=C/C=C/C=C(C)/C=C/C=C(C)/C=C/C1=C(C)C[C@@H](O)CC1(C)C", "inactive"),
    ("CN1CC(O)c2cc(N=NC(N)=O)c(O)cc21 (stereo not drawn)", "inactive"),
    ("CC(C)NCC(O)COc1ccccc1-n1cccc1 (stereo not drawn)", "inactive"),
    ("CCCOc1ccc2nc(NC(=O)OC)sc2c1", "active"),
]

Let us examine a further case.
Query block: How did this test come out for O=C(Nc1ccc(Br)cc1)c1cc(Br)c(Br)s1 ?
Result block: active

---

Experiment: qHTS assay to test for compound auto fluorescence at 590 nm (red) in HepG2 cell free culture (AID 720684)
Conditions: cell-free medium autofluorescence, red 540/590 nm; series mostly up to 46 µM
Active and inactive are the calls of the source. The call rests on the fitted dose curve; in most records, active means well fitted curve in the direction sought with a large enough effect in the repeat runs; inconclusive means weak or mixed curves; inactive means flat fitted curve, though single readings scatter.
Observation type: outcome

# Molecule, Value observed
measured = [
    ("O=C1CCC(=O)N1CO", "inactive"),
    ("CN[C@@H]1[C@@H](O)[C@@H](O[C@@H]2[C@@H](O)[C@H](OC3OC(CN)=CCC3N)[C@@H](N)C[C@H]2N)OC[C@]1(C)O (stereo partly drawn)", "inactive"),
    ("CCN(CC)CCOc1ccc(-c2nc3cc(Cl)ccc3s2)cc1", "inactive"),
    ("CC(=O)Oc1cccc(C(=O)O)c1OC(C)=O", "inactive"),
]

API: the following record is the query input.
Query block: Given the entry CN1CC(O)c2cc(N=NC(N)=O)c(O)cc21 (stereo not drawn) , report its measured outcome.
Result block: inactive

---

Assay: qHTS assay to identify small molecule antagonists of the thyroid receptor (TR) signaling pathway - cell viability counter screen (AID 743064); also: nearly all actives have a fitted effect of over 50% in size
Conditions: GH3.TRE-Luc viability, CellTiter-Fluor, 24 h; series mostly up to 70.3 µM
Source text: National Center for Advancing Translational Sciences [NCATS] NIH Chemical Genomics Center [NCGC] U.S. Environmental Protection Agency [EPA] National Institutes of Environmental Health Sciences [NIEHS] National Toxicology Program [NTP] U.S. Food and Drug Administration [FDA] Thyroid receptor (TR), a nuclear hormone receptor, plays an important role in development, proliferation, differentiation, metabolism, brain function, and cardiovascular system. […]
Results filed as inconclusive are left out. Calls of active or inactive are those of the source. Calls come from the whole dose curve; as a rule, active = well fitted cell-killing curve with a large enough effect in the repeat runs; inconclusive = weak or mixed curves, or effect the other way; inactive = no such curve, though single readings can be large or run the other way.
I would appreciate it if you answered using one of these outcomes: class 1 (active), class 0 (inactive)

Field: example entries. Status: answers known.
# Molecule, Answer label
rows = [
    ("C=C1c2c(Cl)ccc(O)c2C(O)=C2C(=O)[C@]3(O)C(O)=C(C(N)=O)C(=O)[C@@H](N(C)C)[C@@H]3[C@@H](O)[C@H]12", "class 0"),
    ("C#C[C@]1(O)CC[C@H]2[C@@H]3CCC4=C/C(=N/O)CC[C@@H]4[C@H]3CC[C@@]21CC", "class 1"),
    ("CC(C)N=c1cc2n(-c3ccc(Cl)cc3)c3ccccc3nc-2cc1Nc1ccc(Cl)cc1", "class 1"),
    ("C[Se]CCC(N)C(=O)O (stereo unspecified)", "class 0"),
    ("CS(=O)(=O)c1ccc(C2=C(c3ccccc3)C(=O)OC2)cc1", "class 0"),
]

Let us examine a further case.
Query block: How did this test come out for CCN(CC)c1ccc(N=Nc2ccc(S(=O)(=O)N(C)C)cc2)c(S(=O)(=O)NCC[n+]2ccccc2)c1 ?
Result block: class 0

Where these numbers come from: PubChem BioAssay (Tox21)
